Entry source: patent US20190381037A1

Overview of recorded EC50 for various molecules
- Target or test system: human GPR40 receptor (Homo sapiens)
- Sequence (O14842 whole entry): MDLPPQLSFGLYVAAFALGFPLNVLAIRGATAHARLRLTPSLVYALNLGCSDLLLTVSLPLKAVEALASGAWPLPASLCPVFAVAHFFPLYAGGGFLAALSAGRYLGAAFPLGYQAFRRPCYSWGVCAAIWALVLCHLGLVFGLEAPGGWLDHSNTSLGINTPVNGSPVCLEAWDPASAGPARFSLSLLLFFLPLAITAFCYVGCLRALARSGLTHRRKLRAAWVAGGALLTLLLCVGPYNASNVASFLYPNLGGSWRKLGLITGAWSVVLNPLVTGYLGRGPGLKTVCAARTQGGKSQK
- Protocol notes: IP1 accumulation measurements using the IPOne assay system
- Recorded conditions: 1321N1 cells stably expressing human GPR40 receptor; stimulated 1 h at 37° C.
Reported endpoint: EC50 (nM)

[[record]]
molecule = "Cc1cc(-c2nnn(CC(C)(C)O)n2)cc(C)c1-c1cccc(COc2cnc([C@H]3C[C@@H]3C(=O)O)cn2)c1 [Example 12]"
target_or_test_system = "human GPR40 receptor (Homo sapiens)"
result_units = "nM"
measured_value = 8

[[record]]
molecule = "Cc1nnc(-c2ccc(-c3cc(COc4cnc([C@H]5C[C@@H]5C(=O)O)cn4)ccc3C(F)(F)F)cc2)o1 [Example 22]"
target_or_test_system = "human GPR40 receptor (Homo sapiens)"
result_units = "nM"
measured_value = 4

[[record]]
molecule = "O=C(O)[C@H]1C[C@@H]1c1cnc(OCc2cccc(-c3ccc(-c4cnco4)cc3)c2)cn1 [Example 5]"
target_or_test_system = "human GPR40 receptor (Homo sapiens)"
result_units = "nM"
measured_value = 67

[[record]]
molecule = "COc1cc(C)c(-c2cccc(COc3cnc([C@H]4C[C@@H]4C(=O)O)cn3)c2)c(C)c1 [Example 4]"
target_or_test_system = "human GPR40 receptor (Homo sapiens)"
result_units = "nM"
measured_value = 12

[[record]]
molecule = "CC(C)(O)CCOc1ccc(-c2cc(COc3cnc([C@H]4C[C@@H]4C(=O)O)cn3)ccc2C(F)(F)F)cc1 [Example 21]"
target_or_test_system = "human GPR40 receptor (Homo sapiens)"
result_units = "nM"
measured_value = 3

[[record]]
molecule = "Cc1cc(OCC2CCOCC2)cc(C)c1-c1ccc(F)c(COc2cnc([C@H]3C[C@@H]3C(=O)O)cn2)c1 [Example 19]"
target_or_test_system = "human GPR40 receptor (Homo sapiens)"
result_units = "nM"
measured_value = 6

[[record]]
molecule = "O=C(O)[C@H]1C[C@@H]1c1cnc(OCc2cccc(-c3ccccc3C(F)(F)F)c2)cn1 [Example 3]"
target_or_test_system = "human GPR40 receptor (Homo sapiens)"
result_units = "nM"
measured_value = 24

[[record]]
molecule = "Cc1cc(-c2cnccn2)cc(C)c1-c1cccc(COc2cnc([C@H]3C[C@@H]3C(=O)O)cn2)c1 [Example 10]"
target_or_test_system = "human GPR40 receptor (Homo sapiens)"
result_units = "nM"
measured_value = 13

